The following molecules are shown together with reported Population Mitotic Cells (%) values.
test system: Fibroblast; assay: Multiplex assay against human fibroblast; format: toxicity, cell-based; settings: 48 h, 1 µM, compound concentration 1 uM, replicate 2
Report as a plain number; the unit % is understood.

Guide cases for Population Mitotic Cells (%), answers given:
MOLECULE | Population Mitotic Cells (%)
CN(C)C(=O)Cn1cc(-c2ccc(-c3cncc4ccccc34)cc2)cn1 | 55
CCCCC1=NC2(CCCC2)C(=O)N1Cc1ccc(-c2ccccc2-c2nnn[nH]2)cc1 | 44
CC(C)COc1ccc(CNC(=O)N(Cc2ccc(F)cc2)C2CCN(C)CC2)cc1 | 47

Query block: Using known records, supply Population Mitotic Cells (%) for Br.CS(=O)(=O)Nc1c(O)ccc2c1CCCC2C1=NCCN1 (stereo not drawn)
Result block: 61

Query block: Using known records, supply Population Mitotic Cells (%) for COC[C@@H](c1ccc(C(F)(F)F)cc1)N1CCN(C2(C)CCN(C(=O)c3c(C)ncnc3C)CC2)C[C@@H]1C.O=C(O)/C=C\C(=O)O [VICRIVIROC MALEATE]
Result block: 46

Query block: Using known records, supply Population Mitotic Cells (%) for Cc1cnc(-c2cc(N3CCN(C(=O)CCS(C)(=O)=O)CC3)ncc2Cl)c(C)c1
Result block: 63

Query block: Using known records, supply Population Mitotic Cells (%) for O=C1[C@H](Cc2ccc(O)cc2)N2C(=O)CCN(C(=O)NCc3ccccc3)[C@H]2CN1Cc1cccc2ccccc12
Result block: 45

Query block: Using known records, supply Population Mitotic Cells (%) for CCCCCC(O)/C=C/[C@H]1C(=O)CC(O)C1C/C=C\CCCC(=O)O (stereo partly drawn)
Result block: 70

====

test system: Fibroblast; test: Multiplex assay against human fibroblast; type: toxicity, cell-based; conditions: 24 h, 1 µM, compound concentration 1 uM, replicate 1
ATTRIBUTE MEASURED: Population Membrane Permeable-Phenotype (%)

Query block: Using known records, supply Population Membrane Permeable-Phenotype (%) for CCCCCC(O)/C=C/[C@H]1C(=O)CC(O)C1C/C=C\CCCC(=O)O (some centres undefined)
Result block: 0%

====

test system: U2OS; assay: Multiplex assay against U2OS; type: toxicity, cell-based; conditions: human, 24 h, 1 µM, compound concentration 1 uM, replicate 2
ATTRIBUTE MEASURED: Population Hoechst High Intensity Objects (%)
Report as a plain number; the unit % is understood.

Guide cases for Population Hoechst High Intensity Objects (%), answers given:
MOLECULE | U | NUMERIC READOUT
COc1cccc2c1c(NS(=O)(=O)c1ccc(Cl)s1)nn2Cc1cccc(CNC(=O)C(C)(C)O)c1 | % | 5
CN(C)C(=O)Cn1cc(-c2ccc(-c3cncc4ccccc34)cc2)cn1 | % | 1
Br.CS(=O)(=O)Nc1c(O)ccc2c1CCCC2C1=NCCN1 (stereo not given) | % | 1

Query block: Using known records, supply Population Hoechst High Intensity Objects (%) for Cc1onc(-c2ccccc2Cl)c1C(=O)N(C)c1ccc(Cl)cc1
Result block: 1

Query block: Using known records, supply Population Hoechst High Intensity Objects (%) for CCCCC1=NC2(CCCC2)C(=O)N1Cc1ccc(-c2ccccc2-c2nnn[nH]2)cc1 [IRBESARTAN]
Result block: 2

Query block: Using known records, supply Population Hoechst High Intensity Objects (%) for Cl.NCCc1ccc(O)c(O)c1 [DOPAMINE HYDROCHLORIDE]
Result block: 1

Query block: Using known records, supply Population Hoechst High Intensity Objects (%) for CCCCCC(O)/C=C/[C@H]1C(=O)CC(O)C1C/C=C\CCCC(=O)O (stereo not given in full)
Result block: 0

====

tested on: HEK-293T; experiment: Multiplex assay against HEK293T; assay type: toxicity, cell-based; settings: human, 48 h, 1 µM, compound concentration 1 uM, replicate 1
ATTRIBUTE MEASURED: Population Mitochondria Different-Phenotype (%)
Report as a plain number; the unit % is understood.

Guide cases for Population Mitochondria Different-Phenotype (%), answers given:
COMPOUND | SYSTEM NAME | NUMERIC READOUT
CC(C)(C)c1cc(NC(=O)Nc2ccc(-c3cn4c(n3)sc3cc(OCCN5CCOCC5)ccc34)cc2)no1 [QUIZARTINIB] | HEK-293T | 11
CN[C@@H](C)C(=O)N[C@H](C(=O)N1CCC[C@H]1C(=O)Nc1snnc1-c1ccccc1)C1CCCCC1 [GDC-0152] | HEK-293T | 22
CCCCC1=NC2(CCCC2)C(=O)N1Cc1ccc(-c2ccccc2-c2nnn[nH]2)cc1 [IRBESARTAN] | HEK-293T | 21
N#Cc1cc(F)cc(-c2nc(-c3ccc(F)cn3)no2)c1 | HEK-293T | 16
Cc1sc2c(c1C)C(c1ccc(Cl)cc1)=N[C@@H](CC(=O)NCCCCCCCCNC(=O)COc1cccc3c1C(=O)N(C1CCC(=O)NC1=O)C3=O)c1nnc(C)n1-2 (stereo partly drawn) | HEK-293T | 56

Query block: Using known records, supply Population Mitochondria Different-Phenotype (%) for CCCCC(=O)N(Cc1ccc(-c2ccccc2-c2nnn[nH]2)cc1)[C@H](C(=O)O)C(C)C
Result block: 12

Query block: Using known records, supply Population Mitochondria Different-Phenotype (%) for CC(C)c1noc(N2CCC(COc3ccc(-c4ccc(S(C)(=O)=O)cc4)nc3)CC2)n1 [GSK-1292263]
Result block: 23

====

test system: HEK-293T; experiment: Multiplex assay against HEK293T; format: toxicity, cell-based; conditions: human, 12 h, 10 µM, compound concentration 10 uM, replicate 1
ATTRIBUTE MEASURED: Population Mitochondria Different-Phenotype (%)
Report as a plain number; the unit % is understood.

COMPOUND | U | NUMERIC READOUT
CC(=O)Nc1cccc2c1c(Sc1ccc(Cl)cc1)c(C)n2CC(=O)O | % | 44
Cc1cnc(-c2cc(N3CCN(C(=O)CCS(C)(=O)=O)CC3)ncc2Cl)c(C)c1 | % | 47
C[C@H](N)COC(=O)[C@@H](CCCCN)NC(=O)Cc1c(-c2ccc3ccccc3c2)[nH]c2c1ccc1ccccc12 | % | 60
O=C(CCCc1ccccc1)Nc1nc2ccccc2c(=O)s1 | % | 47
CN(C)C(=O)Cn1cc(-c2ccc(-c3cncc4ccccc34)cc2)cn1 | % | 65

Query block: Using known records, supply Population Mitochondria Different-Phenotype (%) for COc1cccc2c1c(NS(=O)(=O)c1ccc(Cl)s1)nn2Cc1cccc(CNC(=O)C(C)(C)O)c1
Result block: 51

Query block: Using known records, supply Population Mitochondria Different-Phenotype (%) for CC(C)(C)c1cc(NC(=O)Nc2ccc(-c3cn4c(n3)sc3cc(OCCN5CCOCC5)ccc34)cc2)no1
Result block: 78

Query block: Using known records, supply Population Mitochondria Different-Phenotype (%) for Cc1cccc(NC(=O)CN2CCC(c3ccccn3)CC2)c1.Cl.Cl
Result block: 63

Query block: Using known records, supply Population Mitochondria Different-Phenotype (%) for Cc1sc2c(c1C)C(c1ccc(Cl)cc1)=N[C@@H](CC(=O)NCCCCCCCCNC(=O)COc1cccc3c1C(=O)N(C1CCC(=O)NC1=O)C3=O)c1nnc(C)n1-2 (stereo partly drawn)
Result block: 75

Query block: Using known records, supply Population Mitochondria Different-Phenotype (%) for N#Cc1cc(F)cc(-c2nc(-c3ccc(F)cn3)no2)c1
Result block: 51

Query block: Using known records, supply Population Mitochondria Different-Phenotype (%) for Br.CS(=O)(=O)Nc1c(O)ccc2c1CCCC2C1=NCCN1 (stereo not drawn)
Result block: 60

Query block: Using known records, supply Population Mitochondria Different-Phenotype (%) for NCCc1cn(S(=O)(=O)c2c(Cl)nc3sccn23)c2ccccc12.O=C(O)C(=O)O
Result block: 96

Query block: Using known records, supply Population Mitochondria Different-Phenotype (%) for O=C1[C@H](Cc2ccc(O)cc2)N2C(=O)CCN(C(=O)NCc3ccccc3)[C@H]2CN1Cc1cccc2ccccc12
Result block: 90

Query block: Using known records, supply Population Mitochondria Different-Phenotype (%) for CCCCC1=NC2(CCCC2)C(=O)N1Cc1ccc(-c2ccccc2-c2nnn[nH]2)cc1
Result block: 46

Query block: Using known records, supply Population Mitochondria Different-Phenotype (%) for CN1CCN(c2cc(-c3ccccc3)nc(N)n2)CC1
Result block: 46

Query block: Using known records, supply Population Mitochondria Different-Phenotype (%) for Cc1noc(-c2ccc(-c3ccc(CC(=O)O)cc3)cc2)c1NC(=O)O[C@H](C)c1ccccc1Cl
Result block: 72

Query block: Using known records, supply Population Mitochondria Different-Phenotype (%) for CC(/C=C1\SC(=S)N(CCCC(=O)Nc2ccc(C(=O)O)c(O)c2)C1=O)=C\c1ccccc1
Result block: 45

Query block: Using known records, supply Population Mitochondria Different-Phenotype (%) for N#Cc1c(Oc2cccc(OS(=O)(=O)CCCC(F)(F)F)c2)cccc1C(F)(F)F
Result block: 74
